Reported values of self-cleavage for individual entries
B1: HDV Ribozyme (parent)
chain: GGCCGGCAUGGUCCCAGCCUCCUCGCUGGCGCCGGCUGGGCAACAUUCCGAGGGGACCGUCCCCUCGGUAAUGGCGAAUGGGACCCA

Variants of: B1
Assay: self-cleavage, relative activity (ratio to wild type); higher = more cleavage; co-transcriptional
Output spec: single numeric token, no unit.

Consider the worked cases shown below.
[[record]]
mutation_label = "C30U U69C"
measured = 0.796

[[record]]
mutation_label = "U12A U37A"
measured = 0

[[record]]
mutation_label = "U12G G28A"
measured = 0


Which self-cleavage reading was recorded for the variant C7A U23A ?
0.739

Check A42G G81C too.
0.0386

Check G25C G59U too.
0.116

Check G76A G82C too.
0.214

Check G40C G50U too.
0.269

Check G5A G73U too.
0.108

The reported measurements were obtained from the RNAGym collection of RNA variant scans (doi:10.7554/elife.80360).
